Where do the numbers come from? From paper PMC7619385.

target: LmxCLK1 (Leishmania mexicana); assay: biochemical; assay type: binding; conditions: DSF, 10 µM compound, 2 µM LmxCLK1, mean of two runs; read-out: ΔTm Average
Classify by measured ΔTm at 10 µM: True if it is equal to or exceeds 0 °C, False if it is smaller.

{"compound": "Cc1cnc(NC(=O)Nc2cc(Br)c(C)cc2OC[C@@H]2CNCCO2)cn1", "group": "False"}
{"compound": "CCNc1nc(Nc2cc(F)c(C(=O)N3CCOCC3)cc2OC)ncc1C(F)(F)F", "group": "False"}
{"compound": "COC(=O)[C@]12CCC(C)(C)C[C@H]1[C@H]1C(=O)C=C3[C@@]4(C)C=C(C#N)C(=O)C(C)(C)[C@@H]4CC[C@@]3(C)[C@]1(C)CC2", "group": "True"}
{"compound": "CO[C@H]1C[C@@H]2CC[C@@H](C)[C@@](O)(O2)C(=O)C(=O)N2CCCC[C@H]2C(=O)O[C@H]([C@H](C)C[C@@H]2CC[C@@H](O)[C@H](OC)C2)CC(=O)[C@H](C)/C=C(\\C)[C@@H](O)[C@@H](OC)C(=O)[C@H](C)C[C@H](C)/C=C/C=C/C=C/1C [Rapamycin (Sirolimus)]", "group": "True"}
{"compound": "CCOc1ccn(-c2ccc(F)cc2)c(=O)c1C(=O)Nc1ccc(Oc2ccnc(N)c2Cl)c(F)c1", "group": "True"}
{"compound": "Cc1cc(Nc2nc(N[C@@H](C)c3ccc(F)cc3)c(C#N)cc2F)[nH]n1", "group": "True"}
{"compound": "Cc1c(Cn2c(C)nc3c(C(=O)O)cc(N4CCOCC4)cc32)cccc1C(F)(F)F", "group": "True"}
{"compound": "CC(C)(C)c1cc(NC(=O)Nc2ccc(-c3cn4c(n3)sc3cc(OCCN5CCOCC5)ccc34)cc2)no1", "group": "True"}

Asked: Entry COc1ccc(Cl)c(Nc2nc3ccccc3nc2NS(=O)(=O)c2cccc(NC(=O)C(C)(C)N)c2)c1 : is its ΔTm at 10 µM no less than 0 °C?
Given back: True

Asked: Similarly, O=C(/C=C/c1ccc(O)c(O)c1)c1ccc(O)cc1O ?
Given back: True

Asked: Similarly, N#CC1(c2ccc(NC(=O)c3cccnc3NCc3ccncc3)cc2)CCCC1 ?
Given back: False

Asked: Similarly, Nc1nccc(Oc2ccc(NC(=O)c3c[nH]cc(-c4ccc(F)cc4)c3=O)cc2F)c1Cl ?
Given back: False

Asked: Similarly, CS(=O)(=O)N1CCc2c(-c3cnc(N)nc3)nc(N3CCOCC3)nc21 ?
Given back: True

Asked: Similarly, COCC(=O)NC/C=C/c1ccc2ncnc(Nc3ccc(Oc4ccc(C)nc4)c(C)c3)c2c1 ?
Given back: True

Asked: Similarly, CC(=O)Nc1cccc(-n2c(=O)n(C3CC3)c(=O)c3c(Nc4ccc(I)cc4F)n(C)c(=O)c(C)c32)c1 ?
Given back: False

Asked: Similarly, C#Cc1cccc(Nc2ncnc3cc(OC)c(OCCCCCCC(=O)NO)cc23)c1 ?
Given back: True

Asked: Similarly, Cc1[nH]c(/C=C2\C(=O)Nc3ccc(S(=O)(=O)N(C)c4cccc(Cl)c4)cc32)c(C)c1C(=O)N1CCN(C)CC1 ?
Given back: False

Asked: Similarly, O=C(O)c1ccc(-c2c[nH]c3ncc(-c4ccccc4)cc23)cc1C1CCCC1 ?
Given back: False

Asked: Similarly, CCOc1cc2ncc(C#N)c(Nc3ccc(F)c(Cl)c3)c2cc1NC(=O)/C=C/CN(C)C [Pelitinib (EKB-569), Pelitinib] ?
Given back: True

Asked: Similarly, COc1ccc(-c2ccc3c(N4CCOC[C@@H]4C)nc(N4CCOC[C@@H]4C)nc3n2)cc1CO ?
Given back: True

Asked: Similarly, CCS(=O)(=O)c1cccc(-c2cc(C(=O)NC3CCN(C)CC3)c(C)c3[nH]c4ncc(C)cc4c23)c1 ?
Given back: True

Asked: Similarly, O=c1c(-c2ccc(O)cc2)coc2cc(O)cc(O)c12 ?
Given back: True

----------
molecular target: UniProtKB E9AMP2; experiment: biochemical; type: binding; details: DSF, 10 µM compound, 2 µM LmxCLK1, Run 1
parameter: ΔTm Run 1 (°C)
Provide the reading as a plain figure in °C.

Worked examples, 2 compounds total:
{"compound": "C=CC(=O)Nc1cccc(Nc2nc(Nc3ccc(N4CCN(C(C)=O)CC4)cc3OC)ncc2C(F)(F)F)c1", "measureUnit": "°C", "ΔTm Run 1": 0.0}
{"compound": "c1cncc(CN2CCC(n3ncc4c(N5CCOCC5)nc(-c5ccc6[nH]ccc6c5)nc43)CC2)c1", "measureUnit": "°C", "ΔTm Run 1": 0.0}

Asked: GET /values?readout=ΔTm Run 1&system=UniProtKB E9AMP2&item= CN1CCC(CNc2ccc3ncc(-c4cccc(OC(F)(F)F)c4)n3n2)CC1 [SGI-1776 free base]
Given back: 0.7

----------
target: LmxCLK1 (Leishmania mexicana, UniProt E9AMP2); assay: HTRF (TR-FRET) enzymatic inhibition assay; type: biochemical; details: pre-incubation 5 min; read-out: Time-dependent IC50
parameter: IC50 (nM)
Provide the reading as a plain figure in nM.

Asked: Bench note: what IC50 did C=CC(=O)Nc1cccc(Sc2nc(Nc3ccc(N4CCN(C)CC4)cc3)ncc2Cl)c1 [WZ8040] show?
Given back: 940

----------
Target: NLuc::LmxCLK1 (Leishmania mexicana, UniProt E9AMP2)
Experiment: cell-based
Format: cell-based
Details: 10 µM compound, tracer SV366, promastigotes, mean of two experiments
Procedure: All compounds were tested at a fixed concentration of 10 µM to enable direct comparison of their target occupancy in live cells. Serially diluted probes (5 µL) were added to 85 µL of cells in culture media or 85 µL of purified protein. […] Light emissions at 460+10 nm (BRET donor) and at 610+20 nm (BRET acceptor) were sequentially recorded (integration time = 0.5 s, gain = 3600) using a luminometer (BMG LABTECH Clariostar or Biotek Synergy HT). […]
parameter: Target occupancy Average (%)
Provide the reading as a plain figure in %.

Worked examples, 6 compounds total:
{"compound": "N#Cc1c(O)c2c(-c3ccc(-c4ccccc4O)cc3)csc2[nH]c1=O [A-769662]", "Target occupancy Average, %": 0.0}
{"compound": "Cc1ccccc1CN1C(=O)C2=C(CCN(Cc3ccccc3)C2)N2CCN=C12 [TIC10]", "Target occupancy Average, %": -1.0}
{"compound": "O=C(NOCC1CC1)c1ccc(F)c(F)c1Nc1ccc(I)cc1Cl [PD184352 (CI-1040)]", "Target occupancy Average, %": -11.1}
{"compound": "NC(=O)Nc1sc(-c2ccc(F)cc2)cc1C(N)=O [TPCA-1]", "Target occupancy Average, %": -3.2}
{"compound": "CNC(=O)c1ccccc1Nc1nc(Nc2ccc(N3CCOCC3)cc2OC)ncc1Cl [TAE226 (NVP-TAE226)]", "Target occupancy Average, %": -13.7}
{"compound": "O=C1Nc2ccc(I)cc2/C1=C/c1cc(Br)c(O)c(Br)c1 [GW5074]", "Target occupancy Average, %": -6.8}

Asked: Bench note: what Target occupancy Average did Cl.O=S(=O)(c1cccc2cnccc12)N1CCCNCC1 [Fasudil (HA-1077) HCl] show?
Given back: -1.7

Asked: Similarly, CN(C)CCCn1cc(C2=C(c3c[nH]c4ccccc34)C(=O)NC2=O)c2ccccc21 [GF109203X] ?
Given back: -5.4

Asked: Similarly, O=C(/C=C/c1ccc2ccccc2n1)c1ccncc1 [PFK15] ?
Given back: -10.0

----------
Below is a list of entries, each paired with its recorded ΔTm Average value.
Target: UniProt:E9AMP2
Sequence (E9AMP2 1-422): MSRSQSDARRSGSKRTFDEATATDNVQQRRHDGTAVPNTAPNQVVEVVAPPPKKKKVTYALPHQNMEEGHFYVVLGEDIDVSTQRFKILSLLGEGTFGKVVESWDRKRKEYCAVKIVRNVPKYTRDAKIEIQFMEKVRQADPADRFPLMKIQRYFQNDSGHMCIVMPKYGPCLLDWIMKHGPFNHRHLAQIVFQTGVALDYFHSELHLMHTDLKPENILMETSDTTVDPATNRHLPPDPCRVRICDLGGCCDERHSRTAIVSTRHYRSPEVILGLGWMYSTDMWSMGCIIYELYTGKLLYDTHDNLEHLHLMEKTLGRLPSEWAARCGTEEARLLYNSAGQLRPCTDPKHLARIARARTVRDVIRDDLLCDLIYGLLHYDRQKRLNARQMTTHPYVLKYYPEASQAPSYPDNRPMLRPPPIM
Assay: biochemical
Type: binding
Conditions: DSF, 10 µM compound, 2 µM LmxCLK1, mean of two runs
Provide the reading as a plain figure in °C.

Asked: Bench note: what ΔTm Average did Cc1cc(CN2CCN(c3c(Br)cnc4nc(-c5ccc(N6CCN(C)CC6)cc5)[nH]c34)CC2)no1 [CCT137690] show?
Given back: 0.3

Asked: Similarly, COc1cc2ncnc(Nc3ccc(O)c(Br)c3)c2cc1OC [WHI-P154] ?
Given back: 0.1

Asked: Similarly, COc1cc2/c(=N/c3ccc(Br)cc3F)nc[nH]c2cc1OCC1CCN(C)CC1 [Vandetanib (ZD6474)] ?
Given back: -0.1

Asked: Similarly, COc1cc(N2CCC(N)CC2)ccc1Nc1ncc(Cl)c(-c2c[nH]c3ccccc23)n1 [AZD3463] ?
Given back: 0.4

Asked: Similarly, Cc1cc(C(C)Nc2ccccc2)c2nc(N3CCOCC3)cc(=O)n2c1 (centres unmarked) [TGX-221] ?
Given back: 0.4

Asked: Similarly, CCC[C@H](NC(=O)/C(C#N)=C/c1cccc(Br)n1)c1ccccc1 [Degrasyn (WP1130)] ?
Given back: 0.3

Asked: Similarly, O=C(NCc1ccccc1)c1csc(Nc2ccncn2)n1 [Thiazovivin] ?
Given back: 0.2

Asked: Similarly, C[C@]1(O)C[C@@H](c2nc(-c3ccc4ccc(-c5ccccc5)nc4c3)c3c(N)nccn32)C1 [OSI-906 (Linsitinib)] ?
Given back: -0.2
